- assay.summary: Partition coefficient, log P of the compound
- Assay type: physicochemical
- assay.context: octanol/water; read-out: LogP
Flag rule - logP less than 7 flags Yes; the remaining entries get No.

molecule.smiles: CC(=O)O[C@@H]1[C@H]2C[C@H](OC(=O)c3ccco3)[C@]3(C)[C@@H](OC(C)=O)[C@@H](OC(=O)c4ccccc4)C[C@@](C)(O)[C@@]13OC2(C)C
assigned.class: Yes
--
molecule.smiles: CC(=O)OC[C@]12[C@@H](OC(=O)c3ccccc3)C[C@@H]3[C@@H](OC(=O)c4ccccc4)[C@]1(OC3(C)C)[C@H](C)C[C@H](OC(=O)c1cccnc1)[C@@H]2OC(C)=O
assigned.class: No
--
molecule.smiles: CC(=O)O[C@H]1C[C@@](C)(O)[C@]23OC(C)(C)[C@H](C[C@H](OC(=O)c4ccco4)[C@]2(C)[C@H]1OC(C)=O)[C@H]3OC(=O)c1cccc2ccccc12
assigned.class: No
--
molecule.smiles: CC(=O)OC[C@]12[C@H](OC(=O)c3ccccc3)C(=O)[C@@H]3[C@@H](OC(C)=O)[C@]1(OC3(C)C)[C@](C)(O)C[C@H](OC(C)=O)[C@@H]2OC(=O)c1ccccc1
assigned.class: No
--
molecule.smiles: CC(=O)O[C@H]1[C@H](OC(=O)/C=C/c2ccccc2)[C@@]2(C)[C@@H](OC(=O)c3ccccc3)C[C@@H]3C[C@]2(OC3(C)C)[C@](C)(O)[C@H]1OC(=O)c1cccnc1
assigned.class: No
--
molecule.smiles: CC(=O)O[C@@H]1[C@H]2C[C@H](OC(=O)c3ccco3)[C@]3(C)[C@@H](OC(C)=O)[C@@H](OC(=O)c4ccco4)C[C@@](C)(O)[C@@]13OC2(C)C
assigned.class: Yes
--
molecule.smiles: CC(=O)O[C@@H]1[C@H]2[C@H](O)[C@H](OC(=O)c3ccccc3)[C@]3(C)[C@@H](OC(=O)c4ccccc4)[C@@H](OC(=O)c4ccccc4)C[C@@](C)(O)[C@@]13OC2(C)C
assigned.class: No
--
molecule.smiles: CC(=O)O[C@H]1[C@@H](OC(=O)c2ccccc2)C[C@@](C)(O)[C@]23OC(C)(C)[C@H](C[C@H](OC(=O)c4ccco4)[C@]12C)[C@H]3OC(=O)C(C)(C)C
assigned.class: No
--
molecule.smiles: C[C@@H]1[C@@H](O)[C@@H](O)[C@H](OC(=O)c2ccccc2)[C@@]2(C)[C@@H](OC(=O)/C=C/c3ccccc3)C[C@@H]3C[C@]12OC3(C)C
assigned.class: Yes
--
molecule.smiles: CC(=O)O[C@H]1C[C@@](C)(O)[C@]23OC(C)(C)[C@H](C[C@H](OC(=O)c4ccco4)[C@]2(C)[C@H]1OC(C)=O)[C@H]3O
assigned.class: Yes

Values compiled from ChEMBL document CHEMBL1148809.
